assay: Saturated aqueous solubility determination (HPLC); assay type: physicochemical; conditions: solubility relative to creatine monohydrate
Counter-ions that a name gives are not always drawn.

{"columns": ["compound", "Ratio (relative to CM)"],
 "data": [
  ["CCOC(=O)CNC(=O)CN(C)C(=N)N [Creatine Glycinamide Ethyl Ester HCl, creatine glycinamide ethyl ester]", ">29"],
  ["CCOC(=O)CCNC(=N)N [Ethyl (α-guanido-methyl) ethonoate, ethyl (α-guanido-methyl) ethanoate]", ">8"],
  ["CN(CC(=O)OC(C)(C)C)C(=N)N.Cl [CtB, creatine tert-butyl ester hydrochloride]", "≥18"],
  ["CN(CC(=O)OC1CCCCC1)C(=N)N [Creatine Cyclohexyl Ester Tosylate, creatine cyclohexyl ester]", "<1.0"],
  ["CCOC(=O)CN(C)C(=N)N [CEE, creatine ethyl ester hydrochloride]", ">9"],
  ["CC(C)CCOC(=O)CN(C)C(=N)N [Creatine Isopentyl Ester HCl, creatine isopentyl ester hydrochloride]", ">29"]
]}
